# assay_overview: in vitro
# recorded_conditions: human, tissue homogenate, % of the starting concentration
Where a SMILES comes first, the peptide text is derived from it. [ ]: non-standard residue; d: D form. Aib = CC(C)(N)C(=O)O
assay_endpoint: remaining at 1000 min, 160 μg/ml (%)
The response must be a number in % with no trailing unit.

Sample CC(C)(NC(=O)[C@@H]1CCCN1C(=O)[C@@H](N)CCCCN)C(=O)O [Example 8, H-(L)-Lys-(L)-Pro-Aib-OH] (H-Lys-Pro-[Aib]-OH) — what was its remaining at 1000 min, 160 μg/ml?
40

----------
# assay_overview: in vitro
# recorded_conditions: human, tissue homogenate, % of the starting concentration
Where a SMILES comes first, the peptide text is derived from it. [ ]: non-standard residue; d: D form. Tle = CC(C)(C)[C@H](N)C(=O)O
assay_endpoint: remaining at 5 h, 160 μg/ml (%)
Give just the number in %; leave the unit off.

What value of remaining at 5 h, 160 μg/ml has been recorded for this entry: CC(C)(C)[C@H](NC(=O)[C@@H]1CCCN1C(=O)[C@@H](N)CCCCN)C(=O)O [Example 9, H-(L)-Lys-(L)-Pro-(L)-t-butyl-Gly-OH] (H-Lys-Pro-[Tle]-OH)
58

FYI, the data here is from patent US10954269B2.
